FYI, the data here is from patent US20150299125A1.

# measurement notes: Solubility in biorelevant fasted state simulated intestinal fluid (FaSSIF)
# Assay type: physicochemical
# study conditions: 25 °C, fassif, kinetic from dmso stock, Solubility
Parameter solubility: see the listing below.
Report the value in µM with no unit label.

Cc1cc(Nc2cc(C(F)F)ccn2)nc(-c2ccc([C@](C)(O)[C@H]3CC[C@H](C(=O)OCOC(=O)CC(C)(C)O)CC3)nc2)c1; 59

**Q:** Bench note: what solubility did `Cc1cc(Nc2cc(C(F)F)ccn2)nc(-c2ccc([C@](C)(O)[C@H]3CC[C@H](C(=O)O[C@H]4CC[C@H](N)CC4)CC3)nc2)c1` show?
**A:** 131

**Q:** Bench note: what solubility did `Cc1cc(Nc2cc(C(F)F)ccn2)nc(-c2ccc([C@](C)(O)[C@H]3CC[C@H](C(=O)OCCOP(=O)(O)O)CC3)nc2)c1` show?
**A:** 161

**Q:** Bench note: what solubility did `Cc1cc(Nc2cc(C(F)F)ccn2)nc(-c2ccc([C@](C)(O)[C@H]3CC[C@H](C(=O)OCCCCCCN(C)C)CC3)nc2)c1` show?
**A:** 73

**Q:** Bench note: what solubility did `Cc1cc(Nc2cc(C(F)F)ccn2)nc(-c2ccc([C@](C)(O)[C@H]3CC[C@H](C(=O)OCc4nccn4C)CC3)nc2)c1` show?
**A:** 57

**Q:** Bench note: what solubility did `Cc1cc(Nc2cc(C(F)F)ccn2)nc(-c2ccc([C@](C)(O)[C@H]3CC[C@H](C(=O)OCCCN(C)C)CC3)nc2)c1` show?
**A:** 140
